System: Salmonella typhimurium Ames mutagenicity, literature compiled
Assay: DSSTox (CPDBAS) Carcinogenic Potency Database Salmonella Mutagenicity
Activity calls are given as the source filed them.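 How the source made its calls: active means chemicals rated mutagenic or weakly mutagenic in the Salmonella bacterial test by one literature review, or positive overall by another; inconclusive means no clear call, values can overlap the other calls; inactive means the rest.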
Classes used: T = active, F = inactive

>>> class_assignment("O=C(O)COc1ccc(Cl)cc1Cl")
"F"
>>> class_assignment("CN(C)C(=O)Nc1cccc(C(F)(F)F)c1")
"F"
>>> class_assignment("[CH3][Hg][Cl]")
"F"
>>> class_assignment("NN")
"T"
>>> class_assignment("ClC(Cl)(Cl)C(Cl)(Cl)Cl")
"F"
>>> class_assignment("ClC=C(Cl)Cl")
"F"
>>> class_assignment("CCO")
"F"
>>> class_assignment("[Na+]")
"F"
>>> class_assignment("CC(=O)Nc1cccc2c1-c1ccccc1C2")
"T"
>>> class_assignment("CC(Cl)Cl")
"F"
>>> class_assignment("Cc1ccc2ncccc2c1")
"T"
>>> class_assignment("ClC1=C(Cl)[C@]2(Cl)[C@@H]3[C@H]4C[C@H]([C@@H]5O[C@H]45)[C@@H]3[C@@]1(Cl)C2(Cl)Cl")
"F"
>>> class_assignment("CC(N)Cc1ccccc1 (stereo unspecified)")
"F"
>>> class_assignment("CSCCC(N)C(=O)O (stereo unspecified)")
"F"
>>> class_assignment("Nc1nc(-c2ccc([N+](=O)[O-])o2)cs1")
"T"
>>> class_assignment("O=c1[nH]cc(F)c(=O)[nH]1")
"F"

----------
Tested on: Salmonella typhimurium Ames mutagenicity, literature compiled
Test: DSSTox (CPDBAS) Carcinogenic Potency Database Salmonella Mutagenicity
Text: The Carcinogenic Potency Database (CPDB) is a unique and widely used international resource of the results of over 6500 chronic, long-term animal cancer tests on over 1500 chemical substances. The CPDB provides easy access to the bioassay literature, with qualitative and quantitative analyses of both positive and negative experiments that have been published over the past 50 years in the general literature and by the National Cancer Institute/National Toxicology Program. […]
Activity calls are given as the source filed them.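 The calls were made as follows: active = chemicals rated mutagenic or weakly mutagenic in the Salmonella bacterial test by one literature review, or positive overall by another; inconclusive = no clear call, values can overlap the other calls; inactive = the rest.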
MEASUREMENT_NAME: outcome

>>> recorded_measurement("O=C(O)CC[N+](=O)[O-]")
"active; inactive"
>>> recorded_measurement("Nc1ccc(O)c(N)c1")
"active; inactive"
>>> recorded_measurement("CCNC(=O)Nc1ncc([N+](=O)[O-])s1")
"active; inactive"
>>> recorded_measurement("CCOC(=O)N(CC)N=O")
"active; inactive"
>>> recorded_measurement("O=NN1CCC(O)C1 (centres undefined)")
"active"
>>> recorded_measurement("O=C(O)C(Cl)Cl")
"active"
>>> recorded_measurement("C=CC=O")
"active; inactive"
>>> recorded_measurement("C=C(F)F")
"active"
>>> recorded_measurement("c1cc(OCC2CO2)cc(OCC2CO2)c1 (centres undefined)")
"active"

----------
System: Salmonella typhimurium Ames mutagenicity, literature compiled
Experiment: DSSTox (CPDBAS) Carcinogenic Potency Database Salmonella Mutagenicity
Calls of active or inactive are those of the source.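 The calls were made as follows: active = chemicals rated mutagenic or weakly mutagenic in the Salmonella bacterial test by one literature review, or positive overall by another; inconclusive = no clear call, values can overlap the other calls; inactive = the rest.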
MEASUREMENT_NAME: outcome

>>> recorded_measurement("O=C1CCCCCN1")
"inactive; active"
>>> recorded_measurement("Cc1cc(C)c(S(=O)(=O)O)cc1N=Nc1cc(S(=O)(=O)O)c2ccccc2c1O")
"inactive; active"
>>> recorded_measurement("C[C@]12C=CC(=O)C=C1CC[C@@H]1[C@@H]2C(=O)C[C@@]2(C)[C@H]1CC[C@]2(O)C(=O)CO")
"active"
>>> recorded_measurement("O=P1(N(CCCl)CCCl)NCCCO1 (stereo unspecified)")
"active"
